Biological target: UniProtKB Q9H0K1
Sequence (Q9H0K1 whole entry, species assumed): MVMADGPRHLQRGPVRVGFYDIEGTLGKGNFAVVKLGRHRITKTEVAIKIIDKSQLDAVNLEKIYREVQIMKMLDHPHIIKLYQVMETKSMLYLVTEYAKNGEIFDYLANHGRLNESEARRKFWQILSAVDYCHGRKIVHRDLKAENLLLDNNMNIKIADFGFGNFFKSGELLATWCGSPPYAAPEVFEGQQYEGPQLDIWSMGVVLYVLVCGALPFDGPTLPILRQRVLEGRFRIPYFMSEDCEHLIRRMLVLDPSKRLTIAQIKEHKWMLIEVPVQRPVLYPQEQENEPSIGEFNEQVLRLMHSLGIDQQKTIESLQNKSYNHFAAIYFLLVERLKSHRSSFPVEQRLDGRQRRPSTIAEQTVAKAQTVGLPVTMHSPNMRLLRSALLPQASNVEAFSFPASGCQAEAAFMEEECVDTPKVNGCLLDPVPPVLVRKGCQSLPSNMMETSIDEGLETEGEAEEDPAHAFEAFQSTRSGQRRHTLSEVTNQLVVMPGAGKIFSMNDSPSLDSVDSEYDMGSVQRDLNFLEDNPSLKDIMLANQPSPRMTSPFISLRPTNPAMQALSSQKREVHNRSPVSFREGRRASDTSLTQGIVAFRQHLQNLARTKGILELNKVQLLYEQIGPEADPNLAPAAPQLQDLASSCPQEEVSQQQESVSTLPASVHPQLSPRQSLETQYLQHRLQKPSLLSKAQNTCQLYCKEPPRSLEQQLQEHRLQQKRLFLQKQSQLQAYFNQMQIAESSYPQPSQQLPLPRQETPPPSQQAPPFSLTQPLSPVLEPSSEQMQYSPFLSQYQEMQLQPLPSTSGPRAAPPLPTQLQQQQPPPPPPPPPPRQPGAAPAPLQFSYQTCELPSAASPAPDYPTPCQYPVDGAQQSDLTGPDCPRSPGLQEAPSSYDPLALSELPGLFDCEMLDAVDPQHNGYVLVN
Assay: SIK2 Enzymatic Assay High Version 2 (High ATP)
Assay type: biochemical
endpoint.name: IC50 (nM)
Answer with a number only, understood to be in nM.

Below: 4 molecules and their reported IC50.
>>> df
                                item_smiles  recorded_number
0  CN[C@H]1C[C@@H](COc2cnc(C#N)cc2-c2ccn3nc(NC(=O)C4CC4)cc3c2)C1             13.8
1  Cc1cc(-c2ccn3nc(Nc4cc(C)nc(C)n4)cc3c2)c(OC[C@@H]2CNCCO2)cn1             1.71
2  Cc1cc(-c2ccn3nc(NC(=O)C4CC4)cc3c2)c(OC[C@@H]2CNC(C)(C)CO2)cn1              8.8
3  CC(C)(C#N)COc1cnc(OC(F)F)cc1-c1ccn2nc(Nc3ccn4ncnc4c3)cc2c1             27.1

# input for lookup
UniProtKB Q9H0K1 IC50 of CC#Cc1ccc(O[C@H]2C[C@H]3COC[C@@H](C2)N3)c(-c2ccn3nc(NC(=O)C4CC4)cc3c2)c1 is 37.1
